conditions: 343.15 K; 102 kPa; Liquid; Vibrating tube method
Measured mass density of individual entries
Kindly answer with a numeric value in kg/m3, unit omitted.

{"compound": "CCCCCCCCCC [decane]", "obs.value": 691.5}
{"compound": "CCCCCCCCCCCCCCCCC [heptadecane]", "obs.value": 743.7}
{"compound": "CCCCc1ccccc1 [butylbenzene]", "obs.value": 819.9}

Identify measured mass density corresponding to CCCCCCCCCCCCCCCC [hexadecane] 738.8

Identify measured mass density corresponding to CCCCCCCCCCCC [dodecane] 712.2

Identify measured mass density corresponding to CCCCCCCCCCCCCC [tetradecane] 727.5
